All values here come from patent US10221182B2.

# studySystem: human NR1/NR2A (Homo sapiens (Human), UniProt Q05586+Q12879)
# Sequence (Q12879 23-1464, other chains not shown): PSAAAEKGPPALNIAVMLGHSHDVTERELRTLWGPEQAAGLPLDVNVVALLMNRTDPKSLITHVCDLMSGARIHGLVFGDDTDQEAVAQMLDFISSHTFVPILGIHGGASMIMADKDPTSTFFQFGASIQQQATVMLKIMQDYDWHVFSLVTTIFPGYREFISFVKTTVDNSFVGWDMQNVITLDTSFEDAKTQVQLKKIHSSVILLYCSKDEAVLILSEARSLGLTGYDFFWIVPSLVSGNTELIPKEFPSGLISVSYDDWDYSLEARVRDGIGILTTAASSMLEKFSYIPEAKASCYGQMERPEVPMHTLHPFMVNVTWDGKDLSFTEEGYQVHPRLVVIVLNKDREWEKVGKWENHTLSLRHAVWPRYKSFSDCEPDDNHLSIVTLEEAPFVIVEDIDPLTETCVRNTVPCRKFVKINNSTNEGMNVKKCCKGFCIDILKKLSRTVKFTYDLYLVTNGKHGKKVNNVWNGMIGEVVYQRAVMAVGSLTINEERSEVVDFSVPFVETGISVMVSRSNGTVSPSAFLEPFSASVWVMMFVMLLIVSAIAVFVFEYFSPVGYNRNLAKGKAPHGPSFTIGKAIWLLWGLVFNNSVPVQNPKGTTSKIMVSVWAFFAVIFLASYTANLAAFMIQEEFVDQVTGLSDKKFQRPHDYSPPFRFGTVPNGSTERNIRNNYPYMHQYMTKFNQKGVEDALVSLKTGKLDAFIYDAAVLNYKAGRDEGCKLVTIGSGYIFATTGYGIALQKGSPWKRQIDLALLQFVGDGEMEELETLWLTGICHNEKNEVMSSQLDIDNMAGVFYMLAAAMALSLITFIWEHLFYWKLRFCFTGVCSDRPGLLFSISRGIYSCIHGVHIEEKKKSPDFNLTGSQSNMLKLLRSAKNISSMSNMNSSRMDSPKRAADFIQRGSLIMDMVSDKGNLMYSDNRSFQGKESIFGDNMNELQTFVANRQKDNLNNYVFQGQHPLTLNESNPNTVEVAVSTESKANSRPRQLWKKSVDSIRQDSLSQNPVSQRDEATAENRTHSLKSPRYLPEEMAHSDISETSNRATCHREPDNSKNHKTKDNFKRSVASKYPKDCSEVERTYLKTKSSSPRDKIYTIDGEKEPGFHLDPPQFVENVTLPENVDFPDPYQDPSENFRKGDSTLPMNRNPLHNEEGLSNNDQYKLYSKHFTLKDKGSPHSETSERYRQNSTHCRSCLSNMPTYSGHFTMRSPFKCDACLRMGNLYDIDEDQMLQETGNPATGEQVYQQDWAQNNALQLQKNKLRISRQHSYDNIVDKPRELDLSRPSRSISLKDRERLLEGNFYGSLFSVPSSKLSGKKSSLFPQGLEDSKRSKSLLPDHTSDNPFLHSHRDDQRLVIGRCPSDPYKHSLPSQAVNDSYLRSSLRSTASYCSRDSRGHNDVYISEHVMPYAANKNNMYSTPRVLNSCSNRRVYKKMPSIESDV
# measurementNotes: NR2A antagonist activity, Fluo-4 calcium influx assay in HEK293 cells
# Format: cell-based
# conditionContext: HEK293 cells expressing NR1/NR2A; glutamate 100 μM, glycine 50 μM; read-out: hNR2A IC50
endpointLabel: IC50

INSERT INTO measurements (molecule, endpointlabel, experimentalresult) VALUES
  ('FC(F)(F)c1ccc(CCN2CCC(Nc3ncnc4[nH]ccc34)C(F)(F)C2)cn1 (racemic)', 'IC50', '> 10 µM'),
  ('FC(F)(F)c1ccc(CCN2CCC(Nc3ncnc4[nH]ccc34)C(F)(F)C2)cc1 (racemic)', 'IC50', '> 10 µM'),
  ('FC(F)(F)c1ccc(CCN2CCC(Nc3ncnc4[nH]ncc34)C(F)(F)C2)cn1 (racemic)', 'IC50', '> 10 µM');

---

# studySystem: human NR1/NR2B (Homo sapiens (Human), UniProt Q05586+Q13224)
# Sequence (Q13224 27-1484, other chains not shown): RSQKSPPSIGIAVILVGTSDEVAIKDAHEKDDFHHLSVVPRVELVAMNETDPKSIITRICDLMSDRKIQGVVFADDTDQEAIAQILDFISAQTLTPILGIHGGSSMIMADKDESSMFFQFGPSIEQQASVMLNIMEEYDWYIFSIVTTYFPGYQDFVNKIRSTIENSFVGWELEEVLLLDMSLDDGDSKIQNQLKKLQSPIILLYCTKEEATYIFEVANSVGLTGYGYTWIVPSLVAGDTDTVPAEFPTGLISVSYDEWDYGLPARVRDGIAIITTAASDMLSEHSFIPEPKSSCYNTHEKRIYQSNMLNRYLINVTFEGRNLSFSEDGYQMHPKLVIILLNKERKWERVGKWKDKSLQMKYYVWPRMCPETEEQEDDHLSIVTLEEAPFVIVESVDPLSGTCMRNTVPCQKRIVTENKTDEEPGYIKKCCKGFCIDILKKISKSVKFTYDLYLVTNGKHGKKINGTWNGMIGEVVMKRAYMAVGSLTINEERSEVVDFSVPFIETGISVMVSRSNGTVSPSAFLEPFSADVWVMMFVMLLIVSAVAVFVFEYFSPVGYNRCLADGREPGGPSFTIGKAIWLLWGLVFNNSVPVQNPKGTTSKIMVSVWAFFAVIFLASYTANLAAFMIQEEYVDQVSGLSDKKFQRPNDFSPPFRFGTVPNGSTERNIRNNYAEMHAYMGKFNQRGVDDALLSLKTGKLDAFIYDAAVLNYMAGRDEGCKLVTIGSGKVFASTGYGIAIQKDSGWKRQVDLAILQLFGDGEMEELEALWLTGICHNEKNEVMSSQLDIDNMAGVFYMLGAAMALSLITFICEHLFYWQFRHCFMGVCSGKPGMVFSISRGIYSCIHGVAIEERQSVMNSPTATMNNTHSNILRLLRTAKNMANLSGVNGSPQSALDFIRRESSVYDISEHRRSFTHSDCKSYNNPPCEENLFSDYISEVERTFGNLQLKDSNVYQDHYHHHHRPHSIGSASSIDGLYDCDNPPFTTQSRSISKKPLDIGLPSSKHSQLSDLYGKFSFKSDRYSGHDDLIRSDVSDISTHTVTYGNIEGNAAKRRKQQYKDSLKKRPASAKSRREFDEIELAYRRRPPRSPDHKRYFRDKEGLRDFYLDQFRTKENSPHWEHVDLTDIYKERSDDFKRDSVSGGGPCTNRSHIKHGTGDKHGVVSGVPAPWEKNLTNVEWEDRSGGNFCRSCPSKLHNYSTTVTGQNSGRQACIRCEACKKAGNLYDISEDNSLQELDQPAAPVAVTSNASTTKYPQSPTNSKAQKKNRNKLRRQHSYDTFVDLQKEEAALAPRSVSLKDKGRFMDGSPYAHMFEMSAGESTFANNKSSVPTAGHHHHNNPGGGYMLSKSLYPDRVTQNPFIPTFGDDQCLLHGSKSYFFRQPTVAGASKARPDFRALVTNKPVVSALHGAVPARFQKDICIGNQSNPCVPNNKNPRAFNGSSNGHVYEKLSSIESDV
# measurementNotes: NR2B antagonist activity, Fluo-4 calcium influx assay in HEK293 cells
# Type: cell-based
# conditionContext: hNR2B IC50, HEK293 cells expressing NR1/NR2B; glutamate 100 μM, glycine 50 μM
Please respond with yes (1) when measured IC50 is strictly beneath 30 nM, and with no (0) in all other cases.

INSERT INTO assay_data (molecule, assignedcategory) VALUES
  ('FCc1ccc(CCN2CCC(Nc3ncnc4[nH]ncc34)C(F)(F)C2)cc1 (single isomer, unassigned) [E1-1.7]', 'yes (1)'),
  ('FC1(F)CN(CCc2ccc(Cl)cc2)CCC1Nc1ncnc2[nH]ncc12 (single isomer, unassigned) [E1-1.3]', 'yes (1)'),
  ('FC(F)Oc1ccc(CCN2CCC(Nc3ncnc4[nH]ncc34)C(F)(F)C2)cc1 (single isomer, unassigned) [E1-1.12]', 'no (0)'),
  ('FCc1ccc(CCN2CCC(Nc3ncnc4[nH]ncc34)C(F)(F)C2)cc1 (single isomer, unassigned) [E2-1.7]', 'no (0)'),
  ('Cc1ccc(CCN2CCC(Nc3ncnc4[nH]ncc34)C(F)(F)C2)cn1 (racemic)', 'no (0)'),
  ('Cc1ccc(CCN2CCC(Nc3ncnc4[nH]ncc34)C(F)(F)C2)cc1 (single isomer, unassigned) [E1-1.4]', 'yes (1)'),
  ('Fc1cc(Cl)ccc1CCN1CCC(Nc2ncnc3[nH]ncc23)C(F)(F)C1 (single isomer, unassigned) [E1-1.16]', 'yes (1)'),
  ('CN(c1ncnc2[nH]ncc12)C1CCN(CCc2ccc(C(F)(F)F)cc2)CC1(F)F (racemic)', 'no (0)'),
  ('Fc1ccc(F)c(CCN2CCC(Nc3ncnc4[nH]ncc34)C(F)(F)C2)c1 (racemic)', 'no (0)'),
  ('FC1(F)CN(CCc2ccc(Cl)cc2)CCC1Nc1ncnc2[nH]ncc12 (single isomer, unassigned) [E2-1.3]', 'no (0)');

---

Recorded measurements of pIC50, one per entry
# studySystem: human NR1/NR2B (Homo sapiens (Human), UniProt Q05586+Q13224)
# measurementNotes: NR2B antagonist activity, Fluo-4 calcium influx assay in HEK293 cells
# Format: cell-based
# conditionContext: hNR2B IC50, HEK293 cells expressing NR1/NR2B; glutamate 100 μM, glycine 50 μM
pIC50: −log10 of the molar value.
endpointLabel: pIC50

INSERT INTO results (compound, experimentalresult) VALUES
  ('FC1(F)CN(CCc2ccccc2)CCC1Nc1ncnc2[nH]ncc12 (racemic) [C-1.1]', 7.01),
  ('Fc1cc(Cl)ccc1CCN1CCC(Nc2ncnc3[nH]ncc23)C(F)(F)C1 (single isomer, unassigned) [E2-1.16]', 7.21),
  ('Cc1ccc(CCN2CCC(Nc3ncnc4[nH]ncc34)C(F)(F)C2)cc1 (single isomer, unassigned) [E2-1.4]', 7.66),
  ('Fc1ccc(CCN2CCC(Nc3ncnc4[nH]ncc34)C(F)(F)C2)cc1 (racemic) [C-1.2]', 7.17);
